These data points were gathered from patent US20210380703A1.

# experimental.target: T1, mouse ACVR2A (mouse, UniProt P27038 20-135, limits assumed); note: test concentration or dose not given here
# T1 construct: coated antigen of the initial ELISA
# T1 sequence (P27038 20-135 limits assumed): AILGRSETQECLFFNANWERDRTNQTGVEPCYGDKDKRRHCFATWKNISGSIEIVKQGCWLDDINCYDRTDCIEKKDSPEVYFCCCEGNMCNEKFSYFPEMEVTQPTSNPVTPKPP
# protocol.description: ELISA
measurement.label: optical density (OD)
Answer in OD, number only, no unit symbol.

In the examples that follow, each entry is paired with its recorded optical density.
binder="373_A11 (antibody, V domains shown, Group III) VH: EVQLLESGGGLVQPGGSLRLSCAASGFTFSNYGMNWVRQAPGKGLEWVANINYNGGYTGYADSVKGRFTISRDNSKNTLYLQMNSLRAEDTAVYYCARGANWHDTALDYWGQGTLVTVSS VL: DIQMTQSPSSLSASVGDRVTITCRASQSILTYLNWYQQKPGKAPKLLIYAATSRASGVPSRFSGSGSGTDFTLTISSLQPEDFATYYCQQSYDLPLTFGGGTKVEIK" unit_text=OD measured_result=3.68
binder="374_G11 (antibody, V domains shown, Group III) VH: EVQLLESGGGLVQPGGSLRLSCAASGFTFSDYSMNWVRQAPGKGLEWVSGINYNGGYTSYADSVKGRFTISRDNSKNTLYLQMNSLRAEDTAVYYCARGANWHDTALDYWGQGTLVTVSS VL: DIQMTQSPSSLSASVGDRVTITCRASQSIISYVNWYQQKPGKAPKLVIYAATSLASGVPSRFSGSGSGTDFTLTISSLQPEDFATYYCQQSYDSPLTFGGGTKVEIK" unit_text=OD measured_result=3.6

Consider the record given below.
**Query** Using known records, supply optical density for 375_E10 (antibody, V domains shown, Group III) VH: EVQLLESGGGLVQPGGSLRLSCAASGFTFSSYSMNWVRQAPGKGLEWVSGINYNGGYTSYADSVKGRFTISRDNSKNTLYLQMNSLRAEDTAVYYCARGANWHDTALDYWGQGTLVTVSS VL: DIQMTQSPSSLSASVGDRVTITCRASQSILSYLNWYQQKPGKAPKLVIYAATSRASGVPSRFSGSGSGTDFTLTISSLQPEDFATYYCQQSYDNPLTFGGGTKVEIK
**Result** 3.79
